meta.source: paper PMC8415317

TARGET OR SYSTEM: ERH-2:PID-3^pep 1:2 (Caenorhabditis elegans, UniProt O76616+Q20057)
Sequence (Q20057 1-113): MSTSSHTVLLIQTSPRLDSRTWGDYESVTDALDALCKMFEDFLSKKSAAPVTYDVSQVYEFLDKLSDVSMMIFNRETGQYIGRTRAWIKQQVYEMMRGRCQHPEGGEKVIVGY
Sequence (O76616 171-203 partner limits assumed): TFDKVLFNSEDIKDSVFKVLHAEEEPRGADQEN
PROTOCOL: Isothermal titration calorimetry, binding to ERH-2:PID-3^pep 1:2
Set-up: species or system C. elegans
Where no end group is shown, it is not given here.
MEASUREMENT KIND: Kd (µM)

SEQUENCE CONTENT: KYKTATNKRITLNERFGVLEKGYTIQ [TOST-1^pep]
ENDPOINT UNIT: µM
TEST VALUE: 4
